biological target: AtBBE-like 13 (Arabidopsis thaliana); construct: isolated from Komagataella pastoris cells (codon-optimised synthetic gene); experiment: stopped-flow reductive half-reaction, flavin absorbance at […] nm; details: 50 mM potassium phosphate pH 7.0, 25 °C, anoxic
Sequence (Q93ZA3 31-534): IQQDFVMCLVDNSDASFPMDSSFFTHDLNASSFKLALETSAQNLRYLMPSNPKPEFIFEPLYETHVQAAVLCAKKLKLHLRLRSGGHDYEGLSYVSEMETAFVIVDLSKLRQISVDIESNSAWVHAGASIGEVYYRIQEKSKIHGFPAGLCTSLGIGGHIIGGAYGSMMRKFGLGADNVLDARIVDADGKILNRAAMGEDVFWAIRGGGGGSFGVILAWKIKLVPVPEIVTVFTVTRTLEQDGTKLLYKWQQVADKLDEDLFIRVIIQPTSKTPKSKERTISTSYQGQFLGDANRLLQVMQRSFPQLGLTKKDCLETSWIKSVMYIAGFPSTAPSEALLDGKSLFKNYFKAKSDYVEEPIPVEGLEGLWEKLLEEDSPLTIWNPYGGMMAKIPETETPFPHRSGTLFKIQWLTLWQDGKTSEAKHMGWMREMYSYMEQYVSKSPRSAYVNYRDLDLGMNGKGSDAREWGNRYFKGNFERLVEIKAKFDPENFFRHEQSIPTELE
pKd: −log10 of the molar value.
measure name: pKd

1 = COc1cc(/C=C/CO)ccc1O[C@@H]1O[C@H](CO)[C@@H](O)[C@H](O)[C@H]1O [coniferin]
2 = OC/C=C/c1ccc(O)cc1 [p-coumaryl alcohol]
Of the two listed items, 1 and 2 , which carries the larger pKd figure? Indicate your choice by writing its label.
2
(2: 3.06, 1: 2.73)

From: paper PMC4513132
